Target: bovine erythrocyte GPx (Bos taurus)
Sequence (P00435 1-205): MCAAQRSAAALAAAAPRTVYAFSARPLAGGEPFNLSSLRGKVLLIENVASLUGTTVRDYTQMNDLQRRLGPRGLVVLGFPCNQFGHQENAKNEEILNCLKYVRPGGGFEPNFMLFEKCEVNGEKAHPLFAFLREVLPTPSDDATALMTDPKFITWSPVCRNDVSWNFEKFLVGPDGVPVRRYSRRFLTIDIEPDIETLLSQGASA
PROPERTY_NAME: pIC50
By convention, pIC50 is the negative base-10 log of a molar concentration.

Task: Quick check: pIC50 of O=C(O)CC(S)C(=O)O (stereo not shown) [MSA, mercaptosuccinic acid, reference compound] ?
Output: 5.23

Task: # repeat for `CCOc1c2c(c3c(C(F)(F)F)nc4cc(C)c(C)cc4n13)SSSSS2`
Output: 5.73

Task: # repeat for `CCn1c2c(c3cc(Cl)ccc31)SSSSS2`
Output: 6.40

Task: # repeat for `CCOc1c2c(c3cnc4cc(C)c(C)cc4n13)SSSSS2`
Output: 5.61
